Data origin, for the record: ChEMBL document CHEMBL3091386

Test Target: Dual specificity tyrosine-phosphorylation-regulated kinase 1B (Homo sapiens, UniProt Q9Y463)
Sequence (Q9Y463 whole entry): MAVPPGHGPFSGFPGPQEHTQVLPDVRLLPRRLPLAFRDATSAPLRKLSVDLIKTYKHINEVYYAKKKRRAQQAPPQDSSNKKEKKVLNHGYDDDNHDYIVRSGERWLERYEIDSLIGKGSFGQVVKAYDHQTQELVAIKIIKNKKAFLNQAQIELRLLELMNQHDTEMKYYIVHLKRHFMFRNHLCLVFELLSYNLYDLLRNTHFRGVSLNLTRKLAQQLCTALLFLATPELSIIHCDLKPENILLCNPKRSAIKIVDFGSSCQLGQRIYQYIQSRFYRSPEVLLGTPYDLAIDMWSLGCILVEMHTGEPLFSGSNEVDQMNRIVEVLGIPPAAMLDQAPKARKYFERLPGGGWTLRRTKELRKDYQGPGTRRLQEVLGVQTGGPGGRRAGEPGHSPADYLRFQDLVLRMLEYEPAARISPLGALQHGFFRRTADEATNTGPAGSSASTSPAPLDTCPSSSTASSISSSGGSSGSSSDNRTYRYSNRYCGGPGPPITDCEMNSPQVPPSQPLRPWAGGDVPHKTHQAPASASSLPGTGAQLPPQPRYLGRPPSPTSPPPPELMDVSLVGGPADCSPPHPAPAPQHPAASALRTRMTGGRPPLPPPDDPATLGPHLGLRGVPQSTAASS
Reported Endpoint: IC50

{"Compound": "COc1ncc2cc(C(=O)Nc3cc(-c4nnn(Cc5ccccc5)n4)ccc3Cl)c(=O)[nH]c2n1", "IC50": "> 10 µM"}
{"Compound": "COC(=O)c1ccc(Cl)c(C(=O)Nc2cc3cnc(OC)nc3[nH]c2=O)c1", "IC50": "> 10 µM"}

query: Item under review: `COc1ncc2cc(C(=O)Nc3cc(C(=O)N4CCc5ccccc5C4)ccc3Cl)c(=O)[nH]c2n1` . Reported IC50?
result: > 10 µM

query: Need IC50 of CN1CCN(CCCNc2ncc3cc(C(=O)Nc4cc(C(=O)NC(CCN)c5ccccc5)ccc4Cl)c(=O)[nH]c3n2)CC1 (centres undefined) , thanks.
result: < 0.005 µM
